- Test system: B. subtilis
- protocol: microbe, parasite or virus in culture
- Type: cell-based
- conditions: Bacillus subtilis, read-out: Bs IC50
Lab note: cut-off is 8 µg/mL. Strictly less in IC50 is TRUE. Exactly 8 µg/mL or more is FALSE.

Examples from the recorded data:
compound	label_class
CC(C)=CCC/C(C)=C/CNCCOc1cccc2ccccc12 [compound 12]	TRUE
CC(C)=CCC/C(C)=C/CNC(=O)COC1C2CC3CC(C2)CC1C3 (stereo not drawn) [compound 8]	FALSE
CC(C)=CCC/C(C)=C/COCCNC1C2CC3CC(C2)CC1C3 (stereo not drawn) [compound 4]	FALSE
CC(C)=CCC/C(C)=C/COCC(=O)NC1C2CC3CC(C2)CC1C3 (stereo not drawn) [compound 9]	FALSE
CC(C)=CCC/C(C)=C/C[N+](C)(C)CCOC1C2CC3CC(C2)CC1C3.[I-] (stereo not drawn) [compound 7]	TRUE
CC(C)=CCC/C(C)=C/CNCCOC(C)(C)C [compound 10]	FALSE

Ask: Is IC50 strictly under 8 µg/mL for the entry CC(C)=CCC/C(C)=C/CNCCOc1ccccc1 [compound 11] ?
Result: FALSE

Ask: Would you mind doing CC(C)=CCC/C(C)=C/CNCCNC1C2CC3CC(C2)CC1C3 (stereo not drawn) [compound 1, SQ109] as well?
Result: TRUE

Ask: Would you mind doing CC(C)=CCC/C(C)=C/CNCCOC1C2CC3CC(C2)CC1C3 (stereo not drawn) [compound 3] as well?
Result: FALSE

---

- system_tested: malate dehydrogenase (Mycolicibacterium smegmatis, UniProt A0QVL2)
- Sequence (A0QVL2 whole entry): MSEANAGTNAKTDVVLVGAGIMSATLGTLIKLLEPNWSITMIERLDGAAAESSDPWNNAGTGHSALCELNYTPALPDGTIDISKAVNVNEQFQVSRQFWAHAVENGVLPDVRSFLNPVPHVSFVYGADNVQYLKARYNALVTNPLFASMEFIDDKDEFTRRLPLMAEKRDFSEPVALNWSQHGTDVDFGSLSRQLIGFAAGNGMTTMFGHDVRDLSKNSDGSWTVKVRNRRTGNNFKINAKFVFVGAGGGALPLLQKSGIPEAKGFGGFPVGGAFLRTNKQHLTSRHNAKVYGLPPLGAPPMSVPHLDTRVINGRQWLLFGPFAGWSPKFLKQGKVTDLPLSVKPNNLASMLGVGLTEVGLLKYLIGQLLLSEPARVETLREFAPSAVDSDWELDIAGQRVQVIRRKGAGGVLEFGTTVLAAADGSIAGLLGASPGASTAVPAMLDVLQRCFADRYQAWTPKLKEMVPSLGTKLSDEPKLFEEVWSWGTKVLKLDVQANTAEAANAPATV
readout_type: IC50 (µM)
State just the number; it will be interpreted in µM.

Ask: Look up IC50 for this molecule: CC(C)=CCC/C(C)=C/CNCCNC1C2CC3CC(C2)CC1C3 (stereo not shown) [compound 1, SQ109]
Result: 30.3

---

- system_tested: P. vivax geranylgeranyl diphosphate synthase (GGPPS) (Plasmodium vivax)
- Sequence (A5K4U6 1-375): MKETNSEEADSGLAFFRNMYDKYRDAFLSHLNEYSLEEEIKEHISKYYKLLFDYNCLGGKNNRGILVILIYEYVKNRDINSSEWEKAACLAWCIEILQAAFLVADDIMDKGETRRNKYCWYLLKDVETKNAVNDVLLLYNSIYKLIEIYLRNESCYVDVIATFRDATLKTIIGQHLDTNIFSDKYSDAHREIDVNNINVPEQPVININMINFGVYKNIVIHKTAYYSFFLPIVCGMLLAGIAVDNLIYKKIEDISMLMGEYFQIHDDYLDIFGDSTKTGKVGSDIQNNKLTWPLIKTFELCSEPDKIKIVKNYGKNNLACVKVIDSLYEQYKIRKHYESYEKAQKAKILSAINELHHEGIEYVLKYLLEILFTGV
readout_type: IC50

Ask: Look up IC50 for this compound: CC(C)=CCC/C(C)=C/CNCCNC1C2CC3CC(C2)CC1C3 (stereo not shown)
Result: ≥ 50 µM

---

- system_tested: S. aureus undecaprenyl diphosphate synthase (UPPS) (Staphylococcus aureus)
- Sequence (P60477 1-256): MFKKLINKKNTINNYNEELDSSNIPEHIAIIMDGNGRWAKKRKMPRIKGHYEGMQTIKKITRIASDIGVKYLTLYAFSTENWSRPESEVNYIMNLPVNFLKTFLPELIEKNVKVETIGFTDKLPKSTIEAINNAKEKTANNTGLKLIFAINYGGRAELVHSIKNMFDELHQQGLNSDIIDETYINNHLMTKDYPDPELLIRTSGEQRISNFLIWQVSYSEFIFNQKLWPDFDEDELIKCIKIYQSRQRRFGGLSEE
readout_type: IC50

Ask: Look up IC50 for this molecule: CC(C)=CCC/C(C)=C/CNCCNC1C2CC3CC(C2)CC1C3 (stereo not shown) [compound 1, SQ109]
Result: ≥ 50 µM

---

- system_tested: M. tuberculosis cis-decaprenyl diphosphate synthase (Rv2361) (Mycobacterium tuberculosis, UniProt P9WFF7)
- Sequence (P9WFF7 whole entry): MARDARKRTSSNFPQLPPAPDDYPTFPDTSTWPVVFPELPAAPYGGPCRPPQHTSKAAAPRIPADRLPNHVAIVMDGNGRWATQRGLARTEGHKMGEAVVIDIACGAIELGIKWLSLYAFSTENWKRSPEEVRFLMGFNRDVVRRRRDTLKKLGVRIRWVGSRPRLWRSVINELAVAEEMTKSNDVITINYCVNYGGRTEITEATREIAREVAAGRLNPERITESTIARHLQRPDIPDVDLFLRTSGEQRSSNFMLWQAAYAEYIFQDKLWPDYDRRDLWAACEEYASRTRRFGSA
- protocol: cis-decaprenyl diphosphate synthase inhibition
- Format: biochemical
pIC50: −log10 of the molar value.
readout_type: pIC50

Ask: Look up pIC50 for this molecule: CC(C)=CCC/C(C)=C/CNCCNC1C2CC3CC(C2)CC1C3 (stereo not shown) [compound 1, SQ109]
Result: ≤ 4.30

---

- system_tested: UniProt:P60472
- Sequence (P60472 1-253): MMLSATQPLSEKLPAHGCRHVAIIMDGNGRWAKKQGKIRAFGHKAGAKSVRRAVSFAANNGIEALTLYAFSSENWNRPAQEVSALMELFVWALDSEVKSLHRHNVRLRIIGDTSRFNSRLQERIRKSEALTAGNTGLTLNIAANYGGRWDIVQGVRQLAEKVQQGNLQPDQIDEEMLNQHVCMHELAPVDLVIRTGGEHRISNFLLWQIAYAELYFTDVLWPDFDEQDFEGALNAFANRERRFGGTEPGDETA
pIC50: −log10 of the molar value.
readout_type: pIC50

Ask: Look up pIC50 for this compound: CC(C)=CCC/C(C)=C/CNCCNC1C2CC3CC(C2)CC1C3 (stereo not shown)
Result: ≤ 4.30

---

- Test system: B. subtilis
- protocol: microbe, parasite or virus in culture
- Type: cell-based
- conditions: Bacillus subtilis, read-out: Bs IC50
readout_type: IC50 (µg/mL)
State just the number; it will be interpreted in µg/mL.

molecule	IC50 / µg/mL
CC(C)=CCC/C(C)=C/CNCCO[C@@H]1C[C@@H]2CC[C@@]1(C)C2(C)C [compound 13]	1.8

Ask: Look up IC50 for this molecule: CC(C)=CCC/C(C)=C/CNCCCOC1C2CC3CC(C2)CC1C3 (stereo not drawn) [compound 6]
Result: 3

---

Parameter IC50: see the listing below.
- Test system: E. coli
- protocol: microbe, parasite or virus in culture
- Type: cell-based
- conditions: Escherichia coli, read-out: Ec IC50
State just the number; it will be interpreted in µg/mL.

compound	unit_abbreviation	IC50
CC(C)=CCC/C(C)=C/CNCCO[C@@H]1C[C@@H]2CC[C@@]1(C)C2(C)C	µg/mL	12
CC(C)=CCC/C(C)=C/CNCCOc1cccc2ccccc12	µg/mL	15
CC(C)=CCC/C(C)=C/C[N+](C)(C)CCOC1C2CC3CC(C2)CC1C3.[I-] (stereo not drawn)	µg/mL	37
CC(C)=CCC/C(C)=C/CNCCCOC1C2CC3CC(C2)CC1C3 (stereo not drawn)	µg/mL	2.3
CC(C)=CCC/C(C)=C/CNCCOC1C2CC3CC(C2)CC1C3 (stereo not drawn)	µg/mL	2.8

Ask: // lookup IC50 | system=E. coli | key= CC(C)=CCC/C(C)=C/CNCCNC1C2CC3CC(C2)CC1C3 (stereo not drawn)
Result: 2.8

Ask: Would you mind doing "CC(C)=CCC/C(C)=C/CNCCOc1ccccc1" as well?
Result: 60

Ask: Would you mind doing CC(C)=CCC/C(C)=C/COCCNC1C2CC3CC(C2)CC1C3 (stereo not drawn) as well?
Result: 4.3

---

- System: E. coli
- protocol: microbe, parasite or virus in culture
- Assay type: cell-based
- conditions: Escherichia coli, read-out: Ec IC50
Parameter IC50: see the listing below.

compound	IC50
CC(C)=CCC/C(C)=C/CNC(=O)COC1C2CC3CC(C2)CC1C3 (stereo not shown)	> 345 µg/mL
CC(C)=CCC/C(C)=C/CNCCOC(C)(C)C	> 126 µg/mL
CC(C)=CCC/C(C)=C/COCC(=O)NC1C2CC3CC(C2)CC1C3 (stereo not shown)	> 345 µg/mL

# evaluate next
Ask: Look up IC50 for this compound: CC(C)=CCC/C(C)=C/COCCOC1C2CC3CC(C2)CC1C3 (stereo not shown)
Result: > 332 µg/mL
